Assay: Metabolic stability in pooled mouse hepatocytes assessed as half life
Format: ADME, cell-based, Hepatocyte
Recorded measurements of half-life, one per entry
The figure you give is taken to be in min; do not add the unit.

Past entries and their recorded results:
| compound | val |
| --- | --- |
| O=C(OC1CCC(CN2CCN(c3cc(=O)c4cc(C(F)(F)F)cc([N+](=O)[O-])c4s3)CC2)CC1)C1CCCCC1 (stereo not given) | 4.7 |
| O=C(OC1CCC(CN2CCN(c3cc(=O)c4cc(C(F)(F)F)cc([N+](=O)[O-])c4s3)CC2)CC1)c1ccc(C(F)(F)F)cc1 (stereo not given) | 16.7 |
| O=C(OC1CCC(CN2CCN(c3cc(=O)c4cc(C(F)(F)F)cc([N+](=O)[O-])c4s3)CC2)CC1)c1ccccc1 (stereo not given) | 54.2 |

Quick one: half-life for O=C(OC1CCC(CN2CCN(c3cc(=O)c4cc(C(F)(F)F)cc([N+](=O)[O-])c4s3)CC2)CC1)c1ccc(F)cc1 (stereo not given) ?
4.9

Quick one: half-life for O=C(OC1CCC(CN2CCN(c3cc(=O)c4cc(C(F)(F)F)cc([N+](=O)[O-])c4s3)CC2)CC1)c1ccncc1 (stereo not given) ?
4.9

Quick one: half-life for O=c1cc(N2CCN(CC3CCC(NP(=O)(Oc4ccccc4)Oc4ccccc4)CC3)CC2)sc2c([N+](=O)[O-])cc(C(F)(F)F)cc12 (stereo not given) ?
50.2

Quick one: half-life for COc1ccc(C(=O)OC2CCC(CN3CCN(c4cc(=O)c5cc(C(F)(F)F)cc([N+](=O)[O-])c5s4)CC3)CC2)cc1 (stereo not given) ?
17.7

Quick one: half-life for O=C(OC1CCC(CN2CCN(c3cc(=O)c4cc(C(F)(F)F)cc([N+](=O)[O-])c4s3)CC2)CC1)c1cccs1 (stereo not given) ?
5.2

Quick one: half-life for Cc1ccc(C(=O)OC2CCC(CN3CCN(c4cc(=O)c5cc(C(F)(F)F)cc([N+](=O)[O-])c5s4)CC3)CC2)cc1 (stereo not given) ?
12.1

====

Assay: Metabolic stability in pooled human hepatocytes assessed as half life
Assay type: ADME, cell-based, Hepatocyte
Recorded measurements of half-life, one per entry
The figure you give is taken to be in min; do not add the unit.

Past entries and their recorded results:
| compound | half-life (min) |
| --- | --- |
| COc1ccc(C(=O)OC2CCC(CN3CCN(c4cc(=O)c5cc(C(F)(F)F)cc([N+](=O)[O-])c5s4)CC3)CC2)cc1 (configuration not stated) | 9.9 |
| O=C(OC1CCC(CN2CCN(c3cc(=O)c4cc(C(F)(F)F)cc([N+](=O)[O-])c4s3)CC2)CC1)c1ccccc1 (configuration not stated) | 36.2 |
| Cc1ccc(C(=O)OC2CCC(CN3CCN(c4cc(=O)c5cc(C(F)(F)F)cc([N+](=O)[O-])c5s4)CC3)CC2)cc1 (configuration not stated) | 8.9 |
| O=C(OC1CCC(CN2CCN(c3cc(=O)c4cc(C(F)(F)F)cc([N+](=O)[O-])c4s3)CC2)CC1)c1ccc(F)cc1 (configuration not stated) | 5.9 |

Now look at this one.
Quick one: half-life for O=C(OC1CCC(CN2CCN(c3cc(=O)c4cc(C(F)(F)F)cc([N+](=O)[O-])c4s3)CC2)CC1)c1cccs1 (configuration not stated) ?
5.5

The measurements presented in this section are drawn from ChEMBL document CHEMBL4825698.
